Measured % of positive tumor cells (Mouse 2) of individual entries
biological target: T1, human CLDN18.2 (human); test: flow cytometry, live cells from mouse tumor of A549 cells expressing CLDN18.2, antibody 4 µg/ml
T1 construct: also called huCLDN18.2; hCLDN18.2
Give the value in % but do not write % after it.

Previously resolved entries follow.
binder	% of positive tumor cells (Mouse 2), %
hCl1f (antibody, human IgG1, kappa, V domains shown, Humanized) VH: QVQLVQSGAEVKKPGASVKVSCKASGYTFTDYAMHWVRQAPGQRLEWMGWINAYTGKPTYAQKFQGRVTITRDTSASTAYMELSSLRSEDTAVYYCARAVFYGYTMDAWGQGTLVTVSS VL: DIQMTQSPSSLSASVGDRVTITCRASEDIYSNLAWYQQKPGKAPKLLIYSVKRLQDGVPSRFSGSGSGTDFTLTISSLQPEDFATYYCLQGSNFPLTFGQGTKVEIKR	14
hCl1c (antibody, human IgG1, kappa, V domains shown, Humanized) VH: QVQLVQSGAEVKKPGASVKVSCKASGYTFTDYAMHWVRQAPGQRLEWMGWINTYTGKPTYSQKFQGRVTITRDTSASTAYMELSSLRSEDTAVYYCARAVFYGYTMDAWGQGTLVTVSS VL: DIQMTQSPSSLSASVGDRVTITCRTSEDIYSNLAWYQQKPGKAPKLLIFAIKRLQDGVPSRFSGSGSGTDFTLTISSLQPEDFATYYCLQGSKFPLTFGQGTKVEIKR	8
hCl1b (antibody, human IgG1, kappa, V domains shown, Humanized) VH: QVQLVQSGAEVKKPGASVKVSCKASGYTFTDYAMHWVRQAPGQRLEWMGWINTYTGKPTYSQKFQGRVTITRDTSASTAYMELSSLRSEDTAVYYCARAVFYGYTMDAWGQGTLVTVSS VL: DIQMTQSPSSLSASVGDRVTITCRASEDIYSNLAWYQQKPGKAPKLLIFSVKRLQDGVPSRFSGSGSGTDFTLTISSLQPEDFATYYCLQGSNFPLTFGQGTKVEIKR	17

## Input Consider the binder shown here: cCl1-1 (antibody, V domains shown, Chimeric antibody from a rat hybridoma; not built in; also called chimeric cCl1-1 antibody) VH: QIQLVQSGPELKKPGESVKISCKASGYTFTDYAMHWVKQAPGKGLKWMGWINTYTGKPTYADDFKGRFVFSLEASASTANLQISNLKNEDTATYFCARAVFYGYTMDAWGQGTSVTVSS VL: DIQMTQSPASLSASLGETISIACRASEDIYSNLAWYQQKSGKSPQLLIFSVKRLQDGVPSRFSGSGSGTQYSLKISGMQPEDEGDYFCLQGSNFPLTFGSGTKLEIK What is its recorded % of positive tumor cells (Mouse 2)?
## Output 15
